Just for reference, patent US9265253B2 is where these values come from.

# Test system: Phakopsora pachyrhizi
# assay-info: Asian Soybean Rust (PHAKPA) disease control
# Assay type: in vivo
# measurement-conditions: Phakopsora pachyrhizi, topical, 72 h, 3 Day Curative, read-out: Disease Control PHAKPA 3DC
measurement-kind: pest or weed control at 25 ppm

Need pest or weed control at 25 ppm of COc1ccnc(C(=O)N[C@H]2CCC[C@H](CC3CCCCC3)[C@@H](OCC(C)C)[C@H](C)OC2=O)c1OCOC(C)=O , thanks.
0 to 80%

Input COc1ccnc(C(=O)N[C@H]2CCC[C@H](CCC(C)C)[C@@H](OCC3CC3)[C@H](C)OC2=O)c1OCOC(=O)C(C)C
0 to 80%

Input CCCO[C@@H]1[C@@H](CCC(C)C)CCC[C@H](NC(=O)c2nccc(OC)c2OC(C)=O)C(=O)O[C@H]1C
80 to 100%

Input COCC[C@H]1CCC[C@H](NC(=O)c2nccc(OC)c2OCOC(C)=O)C(=O)O[C@@H](C)[C@@H]1OCC(C)C
80 to 100%

Input COc1ccnc(C(=O)N[C@H]2CCC[C@H](Cc3ccc(F)cc3)[C@@H](OCC3CC3)[C@H](C)OC2=O)c1OC(C)=O
0 to 80%

Input CCCO[C@@H]1[C@@H](CCC(C)C)CCC[C@H](NC(=O)c2nccc(OC)c2OCOC(=O)COCC)C(=O)O[C@H]1C
80 to 100%

Input COc1ccnc(C(=O)N[C@H]2CCC[C@H](CCC(C)C)[C@@H](OCCCC(F)(F)F)[C@H](C)OC2=O)c1OCOC(C)=O
0 to 80%

###

Listing of entries alongside the reported melting point.

Solved entries (count: 3):
CCOCC(=O)OCOc1c(OC)ccnc1C(=O)N[C@H]1CCC[C@H](Cc2ccc(F)cc2F)[C@@H](OC(=O)c2ccco2)[C@H](C)OC1=O    70 to 75 °C
COc1ccnc(C(=O)N[C@H]2CCC[C@H](Cc3ccc(C)cc3)[C@@H](OCC3CC3)[C@H](C)OC2=O)c1OCOC(C)=O    55 to 60 °C
Cc1ccc(C[C@H]2CCC[C@H](N(C(=O)OC(C)(C)C)C(=O)OC(C)(C)C)C(=O)O[C@@H](C)[C@@H]2OCC(C)C)cc1    110 to 114 °C

Here is the next item to consider.
Need melting point of CC(C)CO[C@@H]1[C@@H](Cc2ccc(F)cc2F)CCC[C@H](N)C(=O)O[C@H]1C.Cl , thanks.
67 to 73 °C

###

Listing of entries alongside the reported melting point.

Solved entries (count: 4):
C[C@@H]1OC(=O)[C@@H](N)CCC[C@H](Cc2ccc(F)cc2F)[C@H]1OCCCc1ccccc1.Cl    190 to 195 °C (dec.)
COc1ccnc(C(=O)N[C@H]2CCC[C@H](Cc3ccc(C)cc3)[C@@H](Oc3ccccc3)[C@H](C)OC2=O)c1OC(C)=O    96 to 100 °C
Cc1ccc(C[C@H]2CCC[C@H](N)C(=O)O[C@@H](C)[C@@H]2OCC2CC2)cc1.Cl    210 °C (dec.)
COc1ccnc(C(=O)N[C@H]2CCC[C@H](Cc3ccccc3)[C@@H](OCC(C)C)[C@H](C)OC2=O)c1OCOC(=O)C(C)C    122 to 124 °C

Need melting point of Cc1ccc(C[C@H]2CCC[C@H](NC(=O)OC(C)(C)C)C(=O)O[C@@H](C)[C@@H]2OCC2CC2)cc1 , thanks.
86 to 89 °C

Input C[C@@H]1OC(=O)[C@@H](N)CCC[C@H](Cc2ccc(F)cc2F)[C@H]1OCc1ccccc1.Cl
233 to 237 °C

###

# System: Rhyncosporium secalis
# assay-info: Barley Scald (RHYNSE) disease control
# Type: in vivo
# measurement-conditions: Hordeum vulgare, 24 h, 1 Day Protectant, read-out: Disease Control RHYNSE 1 DP
measurement-kind: pest or weed control at 100 ppm

Solved entries (count: 5):
COc1ccnc(C(=O)N[C@H]2CCC[C@H](Cc3ccccc3)[C@@H](OCC(C)C)[C@H](C)OC2=O)c1OCOC(C)=O [Compound F106]    80 to 100%
CCCO[C@@H]1[C@@H](CCC(C)C)CCC[C@H](NC(=O)c2nccc(OC)c2OC(C)=O)C(=O)O[C@H]1C [Compound F64]    80 to 100%
CCCO[C@@H]1[C@@H](CCC(C)C)CCC[C@H](NC(=O)c2nccc(OC)c2OCOC(=O)COCC)C(=O)O[C@H]1C [Compound F161]    80 to 100%
COc1ccnc(C(=O)N[C@H]2CCC[C@H](Cc3ccccc3)[C@@H](Oc3ccccc3)[C@H](C)OC2=O)c1OCOC(C)=O [Compound F108]    80 to 100%
COc1ccnc(C(=O)N[C@H]2CCC[C@H](Cc3ccccc3)[C@@H](OC3CCCC3)[C@H](C)OC2=O)c1OCOC(C)=O [Compound F110]    80 to 100%

Here is the next item to consider.
Need pest or weed control at 100 ppm of CCO[C@@H]1[C@@H](Cc2ccccc2)CCC[C@H](NC(=O)c2nccc(OC)c2OC(C)=O)C(=O)O[C@H]1C [Compound F87] , thanks.
80 to 100%

###

# Test system: Uncinula necator
# assay-info: Grape Powdery Mildew (UNCINE) disease control
# Type: in vivo
# measurement-conditions: Erysiphe necator, topical, 24 h, 1 Day Protectant, read-out: Disease Control UNCINE 1 DP
measurement-kind: pest or weed control at 100 ppm

Solved entries (count: 4):
COc1ccnc(C(=O)N[C@H]2CCC[C@H](CCBr)[C@@H](Oc3ccccc3)[C@H](C)OC2=O)c1OC(C)=O    0 to 80%
C=C[C@H]1CCC[C@H](NC(=O)c2nccc(OC)c2OC(C)=O)C(=O)O[C@@H](C)[C@@H]1Oc1ccccc1    80 to 100%
CCO[C@@H]1[C@@H](Cc2ccccc2)CCC[C@H](NC(=O)c2nccc(OC)c2OC(C)=O)C(=O)O[C@H]1C    80 to 100%
CCOCC(=O)OCOc1c(OC)ccnc1C(=O)N[C@H]1CCC[C@H](Cc2ccccc2)[C@@H](OCC(C)C)[C@H](C)OC1=O    0 to 80%

Need pest or weed control at 100 ppm of CCCO[C@@H]1[C@@H](Cc2ccc(F)cc2)CCC[C@H](NC(=O)c2nccc(OC)c2OCOC(=O)COCC)C(=O)O[C@H]1C , thanks.
80 to 100%

Input CCOCC(=O)OCOc1c(OC)ccnc1C(=O)N[C@H]1CCC[C@H](Cc2ccccc2)[C@@H](OCC2CC2)[C@H](C)OC1=O
0 to 80%

Input CCOCC(=O)OCOc1c(OC)ccnc1C(=O)N[C@H]1CCC[C@H](CC2CCCCC2)[C@@H](OCC(C)C)[C@H](C)OC1=O
0 to 80%

Input COc1ccnc(C(=O)N[C@H]2CCC[C@H](Cc3ccccc3)[C@@H](OCC3CC3)[C@H](C)OC2=O)c1OCOC(=O)C(C)C
0 to 80%

Input COc1ccnc(C(=O)N[C@H]2CCC[C@H](Cc3ccc(F)cc3)[C@@H](OCC3CC3)[C@H](C)OC2=O)c1OCOC(C)=O
80 to 100%

Input COc1ccnc(C(=O)N[C@H]2CCC[C@H](CC3CCCCC3)[C@@H](OCC(C)C)[C@H](C)OC2=O)c1OCOC(C)=O
0 to 80%

Input COc1ccnc(C(=O)N[C@H]2CCC[C@H](CC(F)F)[C@@H](Oc3ccccc3)[C@H](C)OC2=O)c1OCOC(C)=O
0 to 80%

Input COCC[C@H]1CCC[C@H](NC(=O)c2nccc(OC)c2OC(C)=O)C(=O)O[C@@H](C)[C@@H]1Oc1ccccc1
0 to 80%

Input COc1ccnc(C(=O)N[C@H]2CCC[C@H](CC(F)F)[C@@H](Oc3ccccc3)[C@H](C)OC2=O)c1OC(C)=O
0 to 80%

###

# Test system: Cercospora beticola
# assay-info: Leaf Spot of Sugar Beets (CERCBE) disease control
# Format: in vivo
# measurement-conditions: Cercospora beticola, topical, 24 h, 1 Day Protectant, sugar beet, read-out: Disease Control CERCBE 1 DP
measurement-kind: pest or weed control at 100 ppm

COc1ccnc(C(=O)N[C@H]2CCC[C@H](Cc3ccc(F)cc3)[C@@H](OCC3CC3)[C@H](C)OC2=O)c1OC(C)=O    80 to 100%

Need pest or weed control at 100 ppm of CCCO[C@@H]1[C@@H](Cc2ccccc2)CCC[C@H](NC(=O)c2nccc(OC)c2OCOC(=O)COCC)C(=O)O[C@H]1C , thanks.
80 to 100%

Input CCCO[C@@H]1[C@@H](Cc2ccc(OC)cc2)CCC[C@H](NC(=O)c2nccc(OC)c2OCOC(C)=O)C(=O)O[C@H]1C
80 to 100%

###

measurement-kind: melting point

CCOCC(=O)OCOc1c(OC)ccnc1C(=O)N[C@H]1CCC[C@H](Cc2ccc(C)cc2)[C@@H](OCC2CC2)[C@H](C)OC1=O    50 to 55 °C
COc1ccnc(C(=O)N[C@H]2CCC[C@H](Cc3ccc(C)cc3)[C@@H](Oc3ccccc3)[C@H](C)OC2=O)c1O    62 to 66 °C
COc1ccnc(C(=O)N[C@H]2CCC[C@H](Cc3ccc(F)cc3F)[C@@H](OC(=O)c3ccco3)[C@H](C)OC2=O)c1OCOC(C)=O    76 to 80 °C
CCCO[C@@H]1[C@@H](Cc2ccc(F)cc2)CCC[C@H](N)C(=O)O[C@H]1C.Cl    215 to 217 °C
COc1ccnc(C(=O)N[C@H]2CCC[C@H](Cc3ccc(C)cc3)[C@@H](OCC(C)C)[C@H](C)OC2=O)c1O    129 to 131 °C

Need melting point of COc1ccnc(C(=O)N[C@H]2CCC[C@H](Cc3ccc(F)cc3F)[C@@H](OC(=O)c3ccco3)[C@H](C)OC2=O)c1O , thanks.
93 to 97 °C

Input COCN(C(=O)OC(C)(C)C)[C@H]1CCC[C@H](CCC(C)C)[C@@H](OCCCC(F)(F)F)[C@H](C)OC1=O
87 to 89 °C

Input COCN(C(=O)OC(C)(C)C)[C@H]1CCC[C@H](Cc2ccc(F)cc2F)[C@@H](OC(=O)c2ccco2)[C@H](C)OC1=O
45 to 48 °C

Input Cc1ccc(C[C@H]2CCC[C@H](N)C(=O)O[C@@H](C)[C@@H]2Oc2ccccc2)cc1.Cl
200 to 210 °C (dec.)

Input COc1ccnc(C(=O)N[C@H]2CCC[C@H](Cc3ccc(C)cc3)[C@@H](Oc3ccccc3)[C@H](C)OC2=O)c1OCOC(C)=O
71 to 75 °C
